# System: Saccharomyces cerevisiae BY4741 SeMeCo community
# Experiment: z-score of subpopulation abundance vs DMSO median, subpopulation auxotrophic for HL; higher = larger share of this subpopulation than in DMSO controls
# Run parameters: 10 µM; 24 h; SM minimal medium; subpopulation (auxotrophy): HL
The following compounds are shown together with reported z-score of subpopulation abundance values.
Lab note: record the figure alone, no unit after it.

Compound	z-score of subpopulation abundance
Cc1c(-c2ccc(O)cc2)n(Cc2ccc(OCCN3CCCCCC3)cc2)c2ccc(O)cc12 [Bazedoxifene Acetate]	-0.12

Now for another entry.
[in] Look up z-score of subpopulation abundance with Saccharomyces cerevisiae BY4741 SeMeCo community for this compound: Cc1ncc([N+](=O)[O-])n1CC(C)O (centres undefined) [Secnidazole]
[out] -0.51

* * *

# Test system: Saccharomyces cerevisiae BY4741 SeMeCo community
# Experiment: z-score of subpopulation abundance vs DMSO median, subpopulation auxotrophic for LM; higher = larger share of this subpopulation than in DMSO controls
# Run parameters: 10 µM; 24 h; SM minimal medium; subpopulation (auxotrophy): LM
Counter-ions that a name gives are not always drawn.
Observed property: z-score of subpopulation abundance

Worked cases, answers included:
> print(dat)
                                   compound  result
1  O=C1CC2(CCCC2)CC(=O)N1CCCCN1CCN(c2ncccn2)CC1 [Buspirone HCl]   -0.34
2     NS(=O)(=O)Cc1noc2ccccc12 [Zonisamide]    1.13
3  CC(C)n1c(/C=C/C(O)CC(O)CC(=O)O)c(-c2ccc(F)cc2)c2ccccc21 (configuration not stated) [Fluvastatin Sodium]   -0.26

[in] # input compound: Clc1ccc(COC(Cn2ccnc2)c2ccc(Cl)cc2Cl)cc1 (configuration not stated) [Econazole nitrate] ; wanted: its z-score of subpopulation abundance
[out] -1.64

[in] # input compound: COc1ccc2[nH]c([S@@+]([O-])Cc3ncc(C)c(OC)c3C)nc2c1 [NEXIUM (esomeprazole magnesium)] ; wanted: its z-score of subpopulation abundance
[out] 0.3

[in] # input compound: CCCCCCCCCCCC(=O)O [Lauric Acid] ; wanted: its z-score of subpopulation abundance
[out] -0.8

[in] # input compound: CN1CCN(c2c(F)cc3c(=O)c(C(=O)O)cn4c3c2OCN4C)CC1 [Marbofloxacin] ; wanted: its z-score of subpopulation abundance
[out] -0.36

[in] # input compound: CC(C)Cc1ccc(C(C)C(=O)O)cc1 (configuration not stated) [Ibuprofen Lysine] ; wanted: its z-score of subpopulation abundance
[out] -0.77

[in] # input compound: CCN1CCN(C(=O)N[C@@H](C(=O)N[C@@H]2C(=O)N3C(C(=O)O)=C(CSc4nnnn4C)CS[C@H]23)c2ccc(O)cc2)C(=O)C1=O [Cefoperazone] ; wanted: its z-score of subpopulation abundance
[out] 1.36

[in] # input compound: CN1CCC(=C2c3ccccc3C=Cc3ccccc32)CC1 [Cyproheptadine hydrochloride] ; wanted: its z-score of subpopulation abundance
[out] -0.35

[in] # input compound: CCCCCC(=O)O[C@]1(C(C)=O)CC[C@H]2[C@@H]3CCC4=CC(=O)CC[C@]4(C)[C@H]3CC[C@@]21C [Hydroxyprogesterone caproate] ; wanted: its z-score of subpopulation abundance
[out] 1.5

[in] # input compound: CN1CCOC(c2ccccc2)c2ccccc2C1 (configuration not stated) [Nefopam HCl] ; wanted: its z-score of subpopulation abundance
[out] -0.2

[in] # input compound: O=C(Nc1cc(Cl)cc(Cl)c1O)c1c(O)c(Cl)cc(Cl)c1Cl [Oxyclozanide] ; wanted: its z-score of subpopulation abundance
[out] -0.51

[in] # input compound: Nc1ccc(S(=O)(=O)Nc2nccs2)cc1 [Sulfathiazole] ; wanted: its z-score of subpopulation abundance
[out] -0.24

[in] # input compound: Nc1nc(/C(=C/CC(=O)O)C(=O)N[C@@H]2C(=O)N3C(C(=O)O)=CCS[C@H]23)cs1 [Ceftibuten dihydrate] ; wanted: its z-score of subpopulation abundance
[out] 0.1

[in] # input compound: CO/N=C(\C(=O)N[C@@H]1C(=O)N2C(C(=O)O)=C(Cn3ccc(=N)n3CCO)CS[C@H]12)c1csc(N)n1 [Cefoselis Sulfate] ; wanted: its z-score of subpopulation abundance
[out] -0.08

[in] # input compound: O=C(O)c1cc(/N=N/c2ccc(O)c(C(=O)O)c2)ccc1O [Olsalazine Sodium] ; wanted: its z-score of subpopulation abundance
[out] -0.58

* * *

# Tested on: Saccharomyces cerevisiae BY4741 SeMeCo community
# Experiment: z-score of subpopulation abundance vs DMSO median, subpopulation auxotrophic for H; higher = larger share of this subpopulation than in DMSO controls
# Run parameters: 10 µM; 24 h; SM minimal medium; subpopulation (auxotrophy): H
z-score of subpopulation abundance vs -0.08: at or above is rule met, below is rule not met.

For orientation, consider the following solved cases.
Molecule	Assigned label
CCN(Cc1ccncc1)C(=O)C(CO)c1ccccc1 (centres undefined) [Tropicamide]	rule not met
CC(C)[N+]1(C)[C@@H]2CC[C@H]1C[C@@H](OC(=O)C(CO)c1ccccc1)C2 (some centres undefined) [Ipratropium Bromide]	rule not met
Fc1ccc(C(c2ccc(F)cc2)N2CCN(C/C=C/c3ccccc3)CC2)cc1 [Flunarizine 2HCl]	rule met
COc1ccc2cc([C@H](C)C(=O)O)ccc2c1 [Naproxen Sodium]	rule not met
NCC[C@H](O)C(=O)N[C@@H]1C[C@H](N)[C@@H](O[C@H]2O[C@H](CN)[C@@H](O)[C@H](O)[C@H]2O)[C@H](O)[C@H]1O[C@H]1O[C@H](CO)[C@@H](O)[C@H](N)[C@H]1O [Amikacin hydrate]	rule met

[in] # check: z-score of subpopulation abundance of CC[C@H]1OC(=O)C[C@@H](O)[C@H](C)[C@@H](O[C@@H]2O[C@H](C)[C@@H](O)[C@H](N(C)C)[C@H]2O)[C@@H](CCN2C[C@H](C)C[C@H](C)C2)C[C@@H](C)C(=O)/C=C/C(C)=C/[C@@H]1CO[C@@H]1O[C@H](C)[C@@H](O)[C@@H](OC)[C@H]1OC [Tilmicosin phosphate] is greater than or equal to -0.08
[out] rule met

* * *

The following compounds are shown together with reported z-score of subpopulation abundance values.
# Test system: Saccharomyces cerevisiae BY4741 SeMeCo community
# Experiment: z-score of subpopulation abundance vs DMSO median, subpopulation auxotrophic for HLUM; higher = larger share of this subpopulation than in DMSO controls
# Run parameters: 10 µM; 24 h; SM minimal medium; subpopulation (auxotrophy): HLUM
Where a name gives a salt, the structure may show the parent alone.
Lab note: record the figure alone, no unit after it.

Worked cases, answers included:
> print(dat)
                                   compound                   observed.property  measured.number
1  CNCCC(Oc1ccc(C(F)(F)F)cc1)c1ccccc1 (centres undefined) [Fluoxetine HCl]  z-score of subpopulation abundance             0.65
2  CC1(C)S[C@@H]2[C@H](NC(=O)Cc3ccccc3)C(=O)N2[C@H]1C(=O)O.CCN(CC)CCOC(=O)c1ccc(N)cc1 [Penicillin G Procaine]  z-score of subpopulation abundance             1.65
3  C[N+]1(C)[C@@H]2C[C@@H](OC(=O)C(O)(c3cccs3)c3cccs3)C[C@H]1[C@@H]1O[C@@H]12 [Tiotropium Bromide hydrate]  z-score of subpopulation abundance            -0.81

Now for another entry.
[in] Look up z-score of subpopulation abundance with Saccharomyces cerevisiae BY4741 SeMeCo community for this compound: CO[C@@]1(NC(=O)CSC[C@@H](N)C(=O)O)C(=O)N2C(C(=O)O)=C(CSc3nnnn3C)CS[C@@H]21 [Cefminox Sodium]
[out] -0.45

* * *

# Tested on: Saccharomyces cerevisiae BY4741 SeMeCo community
# Experiment: z-score of subpopulation abundance vs DMSO median, subpopulation auxotrophic for UM; higher = larger share of this subpopulation than in DMSO controls
# Run parameters: 10 µM; 24 h; SM minimal medium; subpopulation (auxotrophy): UM
Where a name gives a salt, the structure may show the parent alone.
z-score of subpopulation abundance vs 0.05: at or above is label 1, below is label 0.

For orientation, consider the following solved cases.
Compound	Assigned label
COC(=O)C1=C(C)NC(C)=C(C(=O)OC(C)(C)CN(C)CCC(c2ccccc2)c2ccccc2)C1c1cccc([N+](=O)[O-])c1 (stereo not drawn)	label 0
C[C@]12CCC3=C4CCC(=O)C=C4CC[C@H]3[C@@H]1CC[C@@]2(O)CC#N	label 0
C[C@@H](O)[C@H]1C(=O)N2C(C(=O)O)=C(S[C@@H]3CN[C@H](C(=O)Nc4cccc(C(=O)O)c4)C3)[C@H](C)[C@H]12 [Ertapenem sodium]	label 1
OCCN1CCN(CCCN2c3ccccc3Sc3ccc(C(F)(F)F)cc32)CC1 [Fluphenazine dihydrochloride]	label 0
Cc1ccc(Nc2c(F)cccc2Cl)c(CC(=O)O)c1	label 0
CCn1cc(C(=O)O)c(=O)c2cc(F)c(N3CCNCC3)nc21	label 0
O=C(O)c1cc(/N=N/c2ccc(O)c(C(=O)O)c2)ccc1O [Olsalazine Sodium]	label 0
CCOc1ccc(NC(C)=O)cc1	label 1
CC[C@H]1OC(=O)C[C@@H](O)[C@H](C)[C@@H](O[C@@H]2O[C@H](C)[C@@H](O[C@H]3C[C@@](C)(O)[C@@H](O)[C@H](C)O3)[C@H](N(C)C)[C@H]2O)[C@@H](CC=O)C[C@@H](C)C(=O)/C=C/C(C)=C/[C@@H]1CO[C@@H]1O[C@H](C)[C@@H](O)[C@@H](OC)[C@H]1OC	label 1
CCCNCC(O)COc1ccccc1C(=O)CCc1ccccc1 (stereo not drawn) [Propafenone HCl]	label 1

[in] # check: z-score of subpopulation abundance of COc1cccc2c1C(=O)c1c(O)c3c(c(O)c1C2=O)C[C@@](O)(C(=O)CO)C[C@@H]3O[C@H]1C[C@H](N)[C@@H](O)[C@H](C)O1 [Epirubicin HCl] is greater than or equal to 0.05
[out] label 0

[in] # check: z-score of subpopulation abundance of C[C@@H](CN1CC(=O)NC(=O)C1)N1CC(=O)NC(=O)C1 [Dexrazoxane HCl (ICRF-187, ADR-529)] is greater than or equal to 0.05
[out] label 1

[in] # check: z-score of subpopulation abundance of CCN(CC)C(=O)C1(c2ccccc2)CC1CN (stereo not drawn) [Milnacipran HCl] is greater than or equal to 0.05
[out] label 1

[in] # check: z-score of subpopulation abundance of CCCCC(F)(F)[C@@]1(O)CC[C@H]2[C@@H](CC(=O)[C@@H]2CCCCCCC(=O)O)O1 is greater than or equal to 0.05
[out] label 0

[in] # check: z-score of subpopulation abundance of Cc1cc(O)c(C(=O)N[C@@H](C(=O)N[C@@H]2C(=O)N3C(C(=O)O)=C(CSc4nnnn4C)CS[C@H]23)c2ccc(O)cc2)cn1 [Cefpiramide sodium] is greater than or equal to 0.05
[out] label 1

[in] # check: z-score of subpopulation abundance of O=C(c1ccccc1)c1ccc2n1CCC2C(=O)O (stereo not drawn) [Ketorolac tromethamine salt] is greater than or equal to 0.05
[out] label 0

[in] # check: z-score of subpopulation abundance of CCCCCCCCCCCCCCCCOP(=O)([O-])OCC[N+](C)(C)C is greater than or equal to 0.05
[out] label 1
